Catalogue of mortality at 2 ppm values
Test system: Spodoptera litura
Test: Larvicidal activity against third-instar larvae of Spodoptera litura infested in soybean seedling assessed as mortality at 2 ppm sprayed 6 days prior to infestation measured after 5 days
Type: functional

Molecule: Cc1cc([S+]([O-])C(F)(F)C(F)Cl)ccc1NC(=O)NC(=O)c1c(F)cccc1F (centres undefined)
Target or system: Spodoptera litura
mortality at 2 ppm / %: 100
//
Molecule: Cc1cc(S(=O)(=O)C(F)(F)C(F)F)c(C)cc1NC(=O)NC(=O)c1c(F)cccc1F
Target or system: Spodoptera litura
mortality at 2 ppm / %: 100
//
Molecule: O=C(NC(=O)c1c(F)cccc1F)Nc1ccc(SC(F)(F)C(F)F)cc1Cl
Target or system: Spodoptera litura
mortality at 2 ppm / %: 100
//
Molecule: O=C(NC(=O)c1c(F)cccc1F)Nc1ccc(SC(F)(F)C(F)F)c(Cl)c1
Target or system: Spodoptera litura
mortality at 2 ppm / %: 100
//
Molecule: Cc1c(NC(=O)NC(=O)c2c(F)cccc2F)ccc(SC(F)(F)C(F)Cl)c1C (centres undefined)
Target or system: Spodoptera litura
mortality at 2 ppm / %: 100
//
Molecule: O=C(NC(=O)c1c(F)cccc1F)Nc1ccc(SC(F)(F)C(F)Cl)c(Cl)c1Cl (centres undefined)
Target or system: Spodoptera litura
mortality at 2 ppm / %: 100
//
Molecule: Cc1cc([S+]([O-])C(F)(F)C(F)F)c(C)cc1NC(=O)NC(=O)c1c(F)cccc1F (centres undefined)
Target or system: Spodoptera litura
mortality at 2 ppm / %: 100
//
Molecule: O=C(NC(=O)c1c(F)cccc1F)Nc1ccc([S+]([O-])C(F)(F)C(F)Cl)cc1Cl (centres undefined)
Target or system: Spodoptera litura
mortality at 2 ppm / %: 90
//
Molecule: O=C(NC(=O)c1c(F)cccc1F)Nc1ccc(S(=O)(=O)C(F)(F)C(F)Cl)cc1Cl (centres undefined)
Target or system: Spodoptera litura
mortality at 2 ppm / %: 100
//
Molecule: O=C(NC(=O)c1c(F)cccc1F)Nc1ccc(S(=O)(=O)C(F)(F)C(F)F)c(Cl)c1Cl
Target or system: Spodoptera litura
mortality at 2 ppm / %: 100
//
Molecule: Cc1cc([S+]([O-])C(F)(F)C(F)Cl)c(C)cc1NC(=O)NC(=O)c1c(F)cccc1F (centres undefined)
Target or system: Spodoptera litura
mortality at 2 ppm / %: 100
//
Molecule: O=C(NC(=O)c1c(F)cccc1F)Nc1ccc(S(=O)(=O)C(F)(F)C(F)F)cc1Cl
Target or system: Spodoptera litura
mortality at 2 ppm / %: 100
//
Molecule: O=C(NC(=O)c1c(F)cccc1F)Nc1ccc(S(=O)(=O)C(F)(F)C(F)F)cc1
Target or system: Spodoptera litura
mortality at 2 ppm / %: 0
//
Molecule: Cc1cc(NC(=O)NC(=O)c2c(F)cccc2F)ccc1S(=O)(=O)C(F)(F)C(F)F
Target or system: Spodoptera litura
mortality at 2 ppm / %: 60
//
Molecule: O=C(NC(=O)c1c(F)cccc1F)Nc1cc(Cl)c([S+]([O-])C(F)(F)C(F)F)cc1Cl (centres undefined)
Target or system: Spodoptera litura
mortality at 2 ppm / %: 100
//
Molecule: Cc1cc(SC(F)(F)C(F)F)c(C)cc1NC(=O)NC(=O)c1c(F)cccc1F
Target or system: Spodoptera litura
mortality at 2 ppm / %: 100
//
Molecule: O=C(NC(=O)c1c(F)cccc1F)Nc1ccc(S(=O)(=O)C(F)(F)C(F)F)cc1F
Target or system: Spodoptera litura
mortality at 2 ppm / %: 100
//
Molecule: O=C(NC(=O)c1c(F)cccc1F)Nc1ccc([S+]([O-])C(F)(F)C(F)F)cc1F (centres undefined)
Target or system: Spodoptera litura
mortality at 2 ppm / %: 95
//
Molecule: O=C(NC(=O)c1c(F)cccc1F)Nc1ccc(SC(F)(F)C(F)F)cc1F
Target or system: Spodoptera litura
mortality at 2 ppm / %: 100

Values compiled from ChEMBL document CHEMBL3045262.
